# Tested on: E. faecium
# Test Details: In vitro MIC testing, antibacterial spectrum of activity
# Assay type: cell-based
# Settings: Enterococcus faecium; E. faecium [VSE] (32 isolates); read-out: MIC90
Recorded Metric: MIC90 (µg/mL)
Report as a plain number; the unit µg/mL is understood.

Some molecules with known MIC90 results, for comparison:
[
  {
    "Smiles Repr": "C[C@H]1c2cccc(O)c2C(=O)C2=C(O)[C@]3(O)C(=O)C(C(N)=O)=C(O)[C@@H](N(C)C)[C@@H]3[C@@H](O)[C@@H]21",
    "Endpoint Unit": "µg/mL",
    "MIC90": 16
  },
  {
    "Smiles Repr": "CN(C)c1ccc(O)c2c1C[C@H]1C[C@H]3[C@H](N(C)C)C(O)=C(C(N)=O)C(=O)[C@@]3(O)C(O)=C1C2=O",
    "Endpoint Unit": "µg/mL",
    "MIC90": 16
  }
]

Attention now turns to another entry.
Form field: reported MIC90 of CON(C)Cc1ccc(O)c2c1C[C@H]1C[C@H]3[C@H](N(C)C)C(O)=C(C(N)=O)C(=O)[C@@]3(O)C(O)=C1C2=O
32
